From: patent US8906897B2

tested on: Staphylococcus aureus 209P; experiment: Antibacterial activity (MIC/MBC), serial dilutions in liquid MH medium; assay type: cell-based

>  <molecule>
C=CC1=C(C)c2cc3[n-]c(cc4nc(cc5[n-]c(cc1n2)c(C)c5CCC(=O)N[C@@H](CCCNC(=N)N)C(=O)OC)C(CCC(=O)N[C@@H](CCCNC(=N)N)C(=O)OC)=C4C)c(C)c3C=C.[Cl-].[Fe+3]

>  <tested.system>
Staphylococcus aureus 209P

>  <output.unit>
µM

>  <inequality.symbol>
=

>  <MBC>
200

$$$$
>  <molecule>
C=CC1=C(C)c2cc3[n-]c(cc4nc(cc5[n-]c(cc1n2)c(C)c5CCC(=O)NC(CO)CO)C(CCC(=O)NC(CO)CO)=C4C)c(C)c3C=C.[Cl-].[Fe+3]

>  <tested.system>
Staphylococcus aureus 209P

>  <output.unit>
µM

>  <inequality.symbol>
>

>  <MBC>
200

$$$$
>  <molecule>
C=CC1=C(C)c2cc3[n-]c(cc4[n-]c(cc5nc(cc1n2)C(C)=C5C=C)c(C)c4CCC(=O)O)c(CCC(=O)O)c3C.[Cl-].[Fe+3]

>  <tested.system>
Staphylococcus aureus 209P

>  <output.unit>
µM

>  <inequality.symbol>
=

>  <MBC>
200

$$$$
>  <molecule>
C=CC1=C(C)c2cc3[n-]c(cc4nc(cc5[n-]c(cc1n2)c(C)c5CCC(=O)N[C@@H](CO)C(=O)OC)C(CCC(=O)N[C@@H](CO)C(=O)OC)=C4C)c(C)c3C=C.[Cl-].[Fe+3]

>  <tested.system>
Staphylococcus aureus 209P

>  <output.unit>
µM

>  <inequality.symbol>
=

>  <MBC>
200

$$$$
>  <molecule>
C=CC1=C(C)c2cc3[n-]c(cc4nc(cc5[n-]c(cc1n2)c(C)c5CCC(=O)NCC(O)CO)C(CCC(=O)NCC(O)CO)=C4C)c(C)c3C=C.[Cl-].[Fe+3] (stereo not drawn)

>  <tested.system>
Staphylococcus aureus 209P

>  <output.unit>
µM

>  <inequality.symbol>
>

>  <MBC>
200

$$$$

###

system: Candida albicans No. 927; test: Antifungal activity, culture growth with pH indicator; assay type: cell-based; design: key: (−) No growth; the indicator is blue; (±) Weak growth; the indicator is yellow, but the precipitate of grown cells looks as a diffuse spot; (+) Strong growth; the indicator is yellow, and the cell precipitate looks as a compact spot; conditions: dilution : 8 of 1 × 10^−4 M
measured.quantity: Test culture growth at various dilutions of the agent

>  <compound>
C=CC1=C(C)c2cc3[n-]c(cc4[n-]c(cc5nc(cc1n2)C(C)=C5C=C)c(C)c4CCC(=O)O)c(CCC(=O)O)c3C.[Cl-].[Fe+3]

>  <tested.system>
Candida albicans No. 927

>  <reported>
+

$$$$
>  <compound>
C[C@@H]1C/C=C/C=C/C=C/C=C/[C@H](O[C@@H]2O[C@H](C)[C@@H](O)[C@H](N)[C@@H]2O)C[C@@H]2O[C@](O)(C[C@@H](O)C[C@H]3O[C@@H]3/C=C/C(=O)O1)C[C@H](O)[C@H]2C(=O)O [Pimafucin, reference compound]

>  <tested.system>
Candida albicans No. 927

>  <reported>
−

$$$$
>  <compound>
C=CC1=C(C)c2cc3[n-]c(cc4nc(cc5[n-]c(cc1n2)c(C)c5CCC(=O)N[C@@H](CCCNC(=N)N)C(=O)OC)C(CCC(=O)N[C@@H](CCCNC(=N)N)C(=O)OC)=C4C)c(C)c3C=C.[Cl-].[Fe+3]

>  <tested.system>
Candida albicans No. 927

>  <reported>
+

$$$$
>  <compound>
C=CC1=C(C)c2cc3[n-]c(cc4nc(cc5[n-]c(cc1n2)c(C)c5CCC(=O)NCCO)C(CCC(=O)NCCO)=C4C)c(C)c3C=C.[Cl-].[Fe+3]

>  <tested.system>
Candida albicans No. 927

>  <reported>
+

$$$$
>  <compound>
C=CC1=C(C)c2cc3[n-]c(cc4nc(cc5[n-]c(cc1n2)c(C)c5CCC(=O)N[C@@H](CO)C(=O)OC)C(CCC(=O)N[C@@H](CO)C(=O)OC)=C4C)c(C)c3C=C.[Cl-].[Fe+3]

>  <tested.system>
Candida albicans No. 927

>  <reported>
+

$$$$
>  <compound>
C=CC1=C(C)c2cc3[n-]c(cc4nc(cc5[n-]c(cc1n2)c(C)c5CCC(=O)N[C@@H](CCC(=O)N[C@@H](CCCNC(=N)N)C(=O)OC)C(=O)N[C@@H](CCCNC(=N)N)C(=O)OC)C(CCC(=O)N[C@@H](CCC(=O)N[C@@H](CCCNC(=N)N)C(=O)OC)C(=O)N[C@@H](CCCNC(=N)N)C(=O)OC)=C4C)c(C)c3C=C.[Cl-].[Fe+3]

>  <tested.system>
Candida albicans No. 927

>  <reported>
±

$$$$
